# experimental_details: basal HepG2 mitochondrial membrane potential changes, profiling panel, cell-based, JC-1 fluorescence, 24 h, 100 nL compound (AID 1167); note: test concentration not given here
# reported_conditions: higher = more signal
Classes are defined on z-score with ranges I: < -0.5; II: ≥ -0.5 and < 0.6; III: ≥ 0.6

>  <molecule>
CC(=O)OC[C@H]1O[C@H](CC=NOC(C)CN2CCCCc3nc(C)c(C)cc32)C=C[C@@H]1OC(C)=O (stereo not given in full)

>  <category>
I

$$$$
>  <molecule>
CCc1cc2c(nc1CC)CCN(CCC(C)=NOC[C@@H](C)[C@H](OCc1ccccc1)C(C)C)C2

>  <category>
III

$$$$
>  <molecule>
COC(=O)[C@@H]1CC[C@H](C)[C@@H](c2ccc(C)cc2)N1C(=O)c1ccc(C=NOC[C@H]2O[C@H](c3ccccc3)C=C[C@@H]2Oc2ccc(OC)cc2)cc1

>  <category>
III

$$$$
>  <molecule>
CC(CCC(=O)OC[C@H]1O[C@H](C#Cc2ccccc2)C=C[C@@H]1Oc1ccc(C)cc1)=NOC[C@@H](C)[C@H](OCc1ccccc1)C(C)C

>  <category>
II

$$$$
>  <molecule>
CC(C)[C@H](NC(=O)OC(C)(C)C)[C@@H](O)CC(=O)C(C)(C)C

>  <category>
II

$$$$
>  <molecule>
COC(OC)[C@@H](C)[C@H](OC)[C@@H](C)[C@H](OC)c1ccccc1

>  <category>
II

$$$$
>  <molecule>
C[C@]12CCC3c4ccc(OCC5CO5)cc4CCC3C1CC[C@@H]2O (stereo not given in full)

>  <category>
III

$$$$
>  <molecule>
CCCNC(=O)OC[C@H]1O[C@H](CCON=C2C[C@@H](O)[C@@H](O)[C@@H]3[C@@H]4C(=O)N(CC)C(=O)[C@@H]4CC[C@@H]23)C=C[C@@H]1Oc1ccc(OC)cc1

>  <category>
I

$$$$
>  <molecule>
COC(=O)CC=C[C@@H](C)[C@@H](C=NOC(C)CN1CCCCc2nc(C)c(C)cc21)NS(=O)(=O)c1ccc(C)cc1 (stereo not given in full)

>  <category>
II

$$$$
>  <molecule>
CCOC(=O)[C@H](Cc1ccccc1)NC(=O)CCC1CC(OC(=O)NCc2cccc3ccccc23)CC2(CCCC(COC(=O)NCc3ccc4c(c3)OCO4)O2)O1 (stereo not given in full)

>  <category>
II

$$$$
>  <molecule>
CCN1C(=O)[C@H]2[C@@H]3C(=CC[C@H]2C1=O)C(=O)[C@H]1O[C@H]1[C@H]3O

>  <category>
I

$$$$
>  <molecule>
CO[C@@H](C(C)C)[C@@H](C)C1OC(=O)CC1O (stereo not given in full)

>  <category>
I

$$$$
>  <molecule>
CCO[C@H](c1cc(OC)cc([N+](=O)[O-])c1OC)[C@H](C)[C@@H](OC)[C@H](C)C=CCC(=O)OC

>  <category>
I

$$$$

* * *

# experimental_details: binders from COS7 lysate, DM2A8 probe, primary screen, torsin A project, cell lysate, small-molecule microarray, fluorescence 635/667 (AID 1065)
# reported_conditions: higher = more signal, COS7 lysate expressing mutant human TOR1A
Please enter Criterion met where composite z-score is greater than or equal to 0.5, and Criterion not met where it is lower.

>  <compound>
CCN1C(=O)[C@H]2[C@H]3[C@H](O)[C@H](O)CC(=NOCC(C)C)[C@H]3CC[C@H]2C1=O

>  <category>
Criterion not met

$$$$
>  <compound>
COC(=O)[C@H](C)NC(=O)CCC1CC(OC(=O)NCc2cccc3ccccc23)CC2(CCCC(COC(=O)NCCc3ccccc3OC)O2)O1 (some centres not stated)

>  <category>
Criterion not met

$$$$
>  <compound>
O=C1[C@H]2[C@H]3[C@H](O)[C@H](O)CC(=NO[C@@H]4O[C@H](CO)[C@@H](O)[C@H](O)[C@H]4O)[C@H]3CC[C@H]2C(=O)N1c1ccc(F)cc1F

>  <category>
Criterion met

$$$$
>  <compound>
CC(C)=CCCC(C)=CCON=C1C[C@@H](O)[C@@H](O)[C@@H]2[C@@H]3C(=O)N([C@@H](C)c4ccccc4)C(=O)[C@@H]3CC[C@@H]12

>  <category>
Criterion not met

$$$$
>  <compound>
CCOC(=O)CCN1C(=O)[C@H]2[C@H]3[C@H](O)[C@H](O)CC(=NOCC=C(C)CCC=C(C)C)[C@H]3CC[C@H]2C1=O

>  <category>
Criterion met

$$$$
>  <compound>
CCCNC(=O)OC[C@H]1O[C@H](CCON=C2C[C@@H](O)[C@@H](O)[C@@H]3[C@@H]4C(=O)N(CC)C(=O)[C@@H]4CC[C@@H]23)C=C[C@@H]1Oc1ccc(OC)cc1

>  <category>
Criterion not met

$$$$
>  <compound>
CC(=O)OC[C@H]1O[C@H](C#CCC2CCCCC2)C=C[C@@H]1OC(C)=O

>  <category>
Criterion met

$$$$
